This collection of values is drawn from paper PMC10220053.

Target: T1, Rco1^PHD1 alone (S. cerevisiae, Zn2+-bound PHD finger. Limits for PHD1 alone are not given; taken from the SID-deleted truncation Rco1 240-313 in the text, which covers PHD1 (zinc finger 260-309))
T1 chain: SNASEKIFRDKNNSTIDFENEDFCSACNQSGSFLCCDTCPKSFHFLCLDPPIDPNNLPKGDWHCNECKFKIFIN
Test: ITC; H3 1–12 peptides with the Eaf3^MRG–Rco1^PHD1–SID complex or with Rco1^PHD1 alone
Conditions: both partners purified
Value kind: Kd (µM)
One number for each entry, in µM.

Kd for ARTKQTARKSTG (peptide, UniProt P61830 2-13, looked up, Histone H3, residues 1–12, Lys4 unmodified; also called H3K4me0 peptide; unmodified H3K4) [H3K4me0^1–12 peptide] is 110
